Below, each entry is listed with its recorded yeast fitness.
B1: tRNA (parent)
chain: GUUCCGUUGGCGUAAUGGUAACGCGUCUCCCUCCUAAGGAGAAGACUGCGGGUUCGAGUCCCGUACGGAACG

# Variants of: B1
# ASSAY_COMMENT: yeast fitness relative to wild type (ratio to wild type); higher = fitter; tRNA-Arg(CCU), competitive growth, 37 C, YPD
This sample holds only a part of the variants without activity.

The following variants have reported results that may help.
GUUCCGUUGGCGUAAUGGUAACGCGUCUCCCUCCUCUGGAGAAGACUGCGGGUUCGAGUCCCGUCCGGAACG [A36C A37U A65C] : 0.534
GAUCCGUGGGCGUAAUGGUAAUGCGUCUCCCCGCUAAAGAGAAGACUGCGGGUUCGAGUCCCGUACGGAACG [U2A U8G C22U U32C C33G G38A] : ≤ 0.5
GUUCCGUUGGCGUAAUGGUAACGCGUCUCCCUCCUGAGGAGAAGACUGCGGGUUCGAGUCCCGUACGCAGCG [A36G G68C A70G] : ≤ 0.5
GUUACGUUGGCGUAAUGGUAACGGGUCUCUCUCCUAAGGAGAAGGCUGCGGGUUCGAGUCCCGUACGGAACG [C4A C24G C30U A45G] : 0.523
GUUCCGUUGACGUAAUGGUAACCCGUCUCCCUGCUAAGGAGAAGACUGCGGGUUGGAGUCCCGUACGGAACG [G10A G23C C33G C55G] : ≤ 0.5
GUUCCGUUGGCGUAAUGGUGACCCGUCUCCUUCCUAAGGAGAAGACUGCGGGUUCGUGUCCCGUAUGGAACG [A20G G23C C31U A57U C66U] : ≤ 0.5
GUUCCGUUGGCAUAAUGGUAGCGCGUCUCCCUCCUAAGGAGAAGAAUGCGGGUUCGAGUCCCGUACGGAACG [G12A A21G C46A] : 0.936
GUUCCGUUGGCGUAAUGGUAACGCGCCUCGCUCCUAAGGAGAAGACUGCGGGUUCGAGUCCCGUACCGAACG [U26C C30G G67C] : ≤ 0.5

yeast fitness reading for GUUCCGUCGGCGUAAAGGAAAUGCGUCCCCCUCCUAAGGAGAAGACUGCGGGUUCGAGUCCCGUACGGAACG [U8C U16A U19A C22U U28C] : ≤ 0.5

yeast fitness reading for GUUCCGUUGGCGUAAUCGUAACGCGUCGUCCUCCUACGGAGAAGACUGCGGGUUCGAGUCCCGUCCGGAACG [G17C U28G C29U A37C A65C] : ≤ 0.5

yeast fitness reading for GUUCCGUUGGCGUAAUGGUAACGCGUCUCCCUUGUAAGGAGAAGACUGCGGGUUCGAGUCCCGUACGGAACG [C33U C34G] : 0.648

yeast fitness reading for GUUCCGUUGGCGUAAUGGUAACGCGUCUCCCUCCUAUGGAGAAGACUGCGGGUUCGAGUCCCGUACGGAUCG [A37U A70U] : 0.655

yeast fitness reading for GUUCGGUUGGCGUAAUGGUAACGCGCCUCCCUCGUAAGGAGAAGACUGCGGGUCCGAGUCCCGUACGGAACG [C5G U26C C34G U54C] : ≤ 0.5
